Ref: ChEMBL document CHEMBL1145323

Kindly supply the reported pIC50 values for the records listed here.
system: PC-3; assay: Antiproliferative activity against human PC3 cell line; format: functional, cell-based; conditions: Homo sapiens, PC-3; read-out: IC50
pIC50 is a log-scale quantity: -log10 of the concentration expressed in molar.

query: May I ask what pIC50 has been recorded for `COC(=O)C[C@H]1[C@]2(C)C3=C(C)[C@H](c4ccoc4)C[C@H]3O[C@@H]2[C@H](O)[C@@H]2[C@]1(C)C(=O)C=C[C@@]2(C)C(=O)N1CCOCC1` ?
result: 5.65

query: # iterate: `COC(=O)C[C@H]1[C@]2(C)C3=C(C)[C@H](c4ccoc4)C[C@H]3O[C@@H]2[C@H](O)[C@@H]2[C@]1(C)C(=O)C=C[C@@]2(C)C(=O)N1CCCCC1`
result: 4.32

query: # iterate: `COC(=O)C[C@H]1[C@]2(C)C3=C(C)[C@H](c4ccoc4)C[C@H]3O[C@@H]2[C@H](O)[C@@H]2[C@]1(C)C(=O)C=C[C@@]2(C)C(=O)NCc1ccc(OC)cc1`
result: 4.67

query: # iterate: `COC(=O)C[C@H]1[C@]2(C)C3=C(C)[C@H](c4ccoc4)C[C@H]3O[C@@H]2[C@H](O)[C@@H]2[C@]1(C)C(=O)C=C[C@@]2(C)C(=O)NCc1ccc(C(F)(F)F)cc1`
result: 4.49

query: # iterate: COC(=O)C[C@H]1[C@]2(C)C3=C(C)[C@H](c4ccoc4)C[C@H]3O[C@@H]2[C@H](O)[C@@H]2[C@]1(C)C(=O)C=C[C@@]2(C)C(=O)NC(C(=O)OC)c1ccccc1 (stereo partly drawn)
result: 5.09

query: # iterate: COC(=O)C[C@H]1[C@]2(C)C3=C(C)[C@H](c4ccoc4)C[C@H]3O[C@@H]2[C@@H]2OC(=O)[C@]3(C)C=CC(=O)[C@@]1(C)[C@@H]23 [NIMBOLIDE]
result: 5.34

query: # iterate: `COC(=O)C[C@H]1[C@]2(C)C3=C(C)[C@H](c4ccoc4)C[C@H]3O[C@@H]2[C@H](O)[C@@H]2[C@]1(C)C(=O)C=C[C@@]2(C)C(=O)NCC(C)C`
result: 5.13

query: # iterate: COC(=O)C[C@H]1[C@]2(C)C3=C(C)[C@H](c4ccoc4)C[C@H]3O[C@@H]2[C@H](O)[C@@H]2[C@]1(C)C(=O)C=C[C@@]2(C)C(=O)NC(C)c1ccccc1 (stereo partly drawn)
result: 4.37

---

system: HOP-62; assay: Antiproliferative activity against human HOP62 cell line; format: functional, cell-based; conditions: Homo sapiens, HOP-62; read-out: IC50
readout name: pIC50
pIC50 is a log-scale quantity: -log10 of the concentration expressed in molar.

query: May I ask what pIC50 has been recorded for `COC(=O)C[C@H]1[C@]2(C)C3=C(C)[C@H](c4ccoc4)C[C@H]3O[C@@H]2[C@H](O)[C@@H]2[C@]1(C)C(=O)C=C[C@@]2(C)C(=O)NCc1ccc(C(F)(F)F)cc1` ?
result: 4.85

query: # iterate: `COC(=O)C[C@H]1[C@]2(C)C3=C(C)[C@H](c4ccoc4)C[C@H]3O[C@@H]2[C@H](O)[C@@H]2[C@]1(C)C(=O)C=C[C@@]2(C)C(=O)NCc1cccc(OC)c1`
result: 4.10

query: # iterate: `COC(=O)C[C@H]1[C@]2(C)C3=C(C)[C@H](c4ccoc4)C[C@H]3O[C@@H]2[C@H](O)[C@@H]2[C@]1(C)C(=O)C=C[C@@]2(C)C(=O)NCc1ccccc1`
result: 4.58

query: # iterate: COC(=O)C[C@H]1[C@]2(C)C3=C(C)[C@H](c4ccoc4)C[C@H]3O[C@@H]2[C@H](O)[C@@H]2[C@]1(C)C(=O)C=C[C@@]2(C)C(=O)NC(C(=O)OC)c1ccccc1 (some centres undefined)
result: 4.87

---

Kindly supply the reported IC50 values for the records listed here.
test system: SW-60; test: Antiproliferative activity against […]; assay type: functional, cell-based; conditions: Homo sapiens, SW-60; read-out: IC50
Express your answer in µM, writing the number without its unit.

query: May I ask what IC50 has been recorded for COC(=O)C[C@H]1[C@]2(C)C3=C(C)[C@H](c4ccoc4)C[C@H]3O[C@@H]2[C@@H]2OC(=O)[C@]3(C)C=CC(=O)[C@@]1(C)[C@@H]23 [NIMBOLIDE] ?
result: 8.25

query: # iterate: `COC(=O)C[C@H]1[C@]2(C)C3=C(C)[C@H](c4ccoc4)C[C@H]3O[C@@H]2[C@H](O)[C@@H]2[C@]1(C)C(=O)C=C[C@@]2(C)C(=O)N1CCOCC1`
result: 5.72

query: # iterate: `COC(=O)C[C@H]1[C@]2(C)C3=C(C)[C@H](c4ccoc4)C[C@H]3O[C@@H]2[C@H](O)[C@@H]2[C@]1(C)C(=O)C=C[C@@]2(C)C(=O)NCc1ccc(C(F)(F)F)cc1`
result: 26.4

query: # iterate: `COC(=O)C[C@H]1[C@]2(C)C3=C(C)[C@H](c4ccoc4)C[C@H]3O[C@@H]2[C@H](O)[C@@H]2[C@]1(C)C(=O)C=C[C@@]2(C)C(=O)NCC(C)C`
result: 0.08
